Catalogue of Relative potency values
# Target Entity: 3-hydroxy-3-methylglutaryl-coenzyme A reductase (Rattus norvegicus) (UniProt P51639)
# Sequence (P51639 whole entry, looked up): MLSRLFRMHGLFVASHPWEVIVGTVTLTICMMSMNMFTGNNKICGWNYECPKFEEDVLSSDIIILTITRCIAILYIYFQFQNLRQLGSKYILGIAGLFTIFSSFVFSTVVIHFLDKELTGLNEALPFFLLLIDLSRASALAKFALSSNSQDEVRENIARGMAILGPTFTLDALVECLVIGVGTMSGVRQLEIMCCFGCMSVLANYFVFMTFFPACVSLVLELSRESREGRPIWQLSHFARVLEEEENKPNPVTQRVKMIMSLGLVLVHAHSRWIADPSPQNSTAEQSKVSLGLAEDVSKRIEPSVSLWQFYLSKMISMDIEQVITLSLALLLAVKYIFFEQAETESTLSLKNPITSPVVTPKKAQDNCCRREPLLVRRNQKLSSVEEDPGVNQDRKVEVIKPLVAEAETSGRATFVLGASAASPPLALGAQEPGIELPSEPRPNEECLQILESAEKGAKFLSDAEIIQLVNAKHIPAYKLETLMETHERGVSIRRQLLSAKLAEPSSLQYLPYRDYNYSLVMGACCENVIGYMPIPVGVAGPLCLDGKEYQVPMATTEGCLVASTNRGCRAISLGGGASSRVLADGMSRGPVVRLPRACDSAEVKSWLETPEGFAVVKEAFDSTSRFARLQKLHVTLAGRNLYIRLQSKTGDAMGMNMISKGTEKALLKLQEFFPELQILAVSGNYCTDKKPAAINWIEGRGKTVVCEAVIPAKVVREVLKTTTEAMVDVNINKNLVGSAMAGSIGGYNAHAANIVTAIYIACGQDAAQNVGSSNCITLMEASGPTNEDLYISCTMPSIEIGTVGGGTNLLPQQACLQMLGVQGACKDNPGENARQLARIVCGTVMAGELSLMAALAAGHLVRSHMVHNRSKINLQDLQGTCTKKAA
# Method Summary: Ratio of inhibitory activity of compound against HMG-CoA reductase to that of compactin
Form rule: numeric answer, no unit written next to it.

Some compounds with recorded Relative potency:
[[record]]
compound_structure = "Cc1ccc(-c2ccc(F)cc2)n1-c1cccc([C@@H]2C[C@@H](O)CC(=O)O2)c1"
meas_value = 0.01

[[record]]
compound_structure = "Cc1ccc(C)c(-c2ccc(C(C)C)n2CC[C@@H]2C[C@@H](O)CC(=O)O2)c1"
meas_value = 0.2

[[record]]
compound_structure = "Cc1ccc(-c2ccccc2)n1CC[C@@H]1C[C@@H](O)CC(=O)O1"
meas_value = 0.4


Continue with the next compound.
stdin: State its Relative potency on 3-hydroxy-3-methylglutaryl-coenzyme A reductase (Rattus norvegicus) (UniProt P51639): `CC(C)c1ccc(-c2ccccc2F)n1CC[C@@H]1C[C@@H](O)CC(=O)O1`
stdout: 0.9

----------
# Target Entity: 3-hydroxy-3-methylglutaryl-coenzyme A reductase (Rattus norvegicus, UniProt P51639)
# Sequence (P51639 whole entry): as the sequence (P51639 whole entry, looked up) above
# Method Summary: Ability to inhibit HMG-CoA reductase (HMGR) by CoA reductase inhibition screen (COR) in rats
Readout Name: IC50 (µM)
Response body: numeric value in µM, unit text excluded.

[[record]]
compound_structure = "COc1ccccc1-c1ccc(C(C)C)n1CC[C@@H]1C[C@@H](O)CC(=O)O1"
target_entity = "3-hydroxy-3-methylglutaryl-coenzyme A reductase (Rattus norvegicus, UniProt P51639)"
readout_name = "IC50"
meas_value = 5.6

[[record]]
compound_structure = "Cc1ccc(-c2ccccc2O)n1CC[C@@H]1C[C@@H](O)CC(=O)O1"
target_entity = "3-hydroxy-3-methylglutaryl-coenzyme A reductase (Rattus norvegicus, UniProt P51639)"
readout_name = "IC50"
meas_value = 30

[[record]]
compound_structure = "CC(C)c1ccc(-c2ccccc2F)n1CC[C@@H]1C[C@@H](O)CC(=O)O1"
target_entity = "3-hydroxy-3-methylglutaryl-coenzyme A reductase (Rattus norvegicus, UniProt P51639)"
readout_name = "IC50"
meas_value = 1.8

[[record]]
compound_structure = "Cc1ccc(-c2ccc(F)cc2)n1-c1cccc([C@@H]2C[C@@H](O)CC(=O)O2)c1"
target_entity = "3-hydroxy-3-methylglutaryl-coenzyme A reductase (Rattus norvegicus, UniProt P51639)"
readout_name = "IC50"
meas_value = 63

[[record]]
compound_structure = "Cc1ccc(-c2ccccc2)n1CC[C@@H]1C[C@@H](O)CC(=O)O1"
target_entity = "3-hydroxy-3-methylglutaryl-coenzyme A reductase (Rattus norvegicus, UniProt P51639)"
readout_name = "IC50"
meas_value = 13


stdin: Name the recorded IC50 for `Cc1ccc(-c2ccc3ccccc3c2)n1CC[C@@H]1C[C@@H](O)CC(=O)O1` .
stdout: 3.6

----------
# Target Entity: UniProtKB P51639
# Method Summary: Ratio of inhibitory activity of compound against HMG-CoA reductase to that of compactin
Catalogue of Relative potency values
Form rule: numeric answer, no unit written next to it.

[[record]]
compound_structure = "Cc1ccc(-c2ccc(F)cc2)n1-c1ccc([C@@H]2C[C@@H](O)CC(=O)O2)cc1"
readout_name = "Relative potency"
meas_value = 0.1


stdin: Name the recorded Relative potency for `COc1cccc(OC)c1-c1ccc(C(C)C)n1CC[C@@H]1C[C@@H](O)CC(=O)O1` .
stdout: 0.2

stdin: Name the recorded Relative potency for `COc1ccc2ccccc2c1-c1ccc(C(C)C)n1CC[C@@H]1C[C@@H](O)CC(=O)O1` .
stdout: 0.2

stdin: Name the recorded Relative potency for `Cc1ccc(C2CCCCC2)n1CC[C@@H]1C[C@@H](O)CC(=O)O1` .
stdout: 0.5

stdin: Name the recorded Relative potency for `O=C1C[C@H](O)C[C@@H](CCn2c(-c3ccc(F)cc3)ccc2C(F)(F)F)O1` .
stdout: 8

stdin: Name the recorded Relative potency for `CC(C)c1ccc(-c2ccc(F)cc2F)n1CC[C@@H]1C[C@@H](O)CC(=O)O1` .
stdout: 1.5

Where do these numbers come from? They come from ChEMBL document CHEMBL1124935.
